Just for reference, patent US20130287684A1 is where these values come from.

TARGET_SYSTEM: T1, human HER3 receptor (human, UniProt P21860 20-643)
T1 construct: also called ErbB3
T1 sequence (P21860 20-643 limits assumed): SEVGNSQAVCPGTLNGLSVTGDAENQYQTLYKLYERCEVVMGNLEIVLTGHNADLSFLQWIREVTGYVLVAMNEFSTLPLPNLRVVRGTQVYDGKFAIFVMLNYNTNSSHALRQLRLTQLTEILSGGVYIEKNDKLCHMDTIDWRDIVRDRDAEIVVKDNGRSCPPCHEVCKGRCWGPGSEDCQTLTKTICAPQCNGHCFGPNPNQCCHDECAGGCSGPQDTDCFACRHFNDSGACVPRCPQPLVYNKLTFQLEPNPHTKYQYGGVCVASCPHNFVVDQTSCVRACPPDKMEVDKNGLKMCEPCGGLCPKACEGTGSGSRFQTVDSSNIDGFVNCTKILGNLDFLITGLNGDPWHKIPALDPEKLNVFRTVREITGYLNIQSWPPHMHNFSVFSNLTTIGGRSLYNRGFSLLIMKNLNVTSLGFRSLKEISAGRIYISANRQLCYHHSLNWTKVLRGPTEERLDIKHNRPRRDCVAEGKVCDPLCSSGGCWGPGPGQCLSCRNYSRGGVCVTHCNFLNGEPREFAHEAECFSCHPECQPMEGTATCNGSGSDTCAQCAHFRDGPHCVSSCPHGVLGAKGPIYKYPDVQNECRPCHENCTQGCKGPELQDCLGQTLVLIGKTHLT
METHOD_SUMMARY: method not named there (Example 1: HER3 ELISA and confocal microscopy on MCF-7 cells)
Protocol: Briefly, Nunc Maxisorb plates (cat.#464718) were coated with 1 μg/ml HER3 protein (R&D Systems cat.#348-RB), diluted in PBS at 4° C. overnight. […] Specific signal was detected on an ELISA reader at 450 nm. […] The 119 clones were screened for binding to the HER3-overexpressing breast cancer cell line (MCF-7) using confocal microscopy. […] The level of fluorescence was then measured using an OPERA high throughput confocal microscope (Perkin Elmer).
EXPERIMENTAL_READOUT: binding result

binder="antibody 5144 (antibody, human IgG1, kappa, V domains shown, Chimeric: murine variable regions, human kappa constant region, expressed as full-length IgG) VH: QVQLKESGPGLVAPSQSLSITCTVSGFSLSRYSVHWVRQPPGKGLEWLGMIWGGGSTDYNSALKSRLNINKDNSKSQVFFKMNSLQTDDTAMYYCVRKGITTTGFDYWGQGTTLTVSS VL: HIVLTQSPAIMSASPGEKVTMTCSASSSVSYMYWYQQKPRSSPRLLIYDTSNLASGVPVRFSGSGSGTSYSLTISRMEADDAATYYCQQLSSYPPTFGGGTKLELKR" observed=binds
binder="antibody 4935 (antibody, human IgG1, kappa, V domains shown, Chimeric: murine variable regions, human kappa constant region, expressed as full-length IgG) VH: QIQLVQSGPELVKPGASVRISCKASGYTFTSYYIHWVKQRPGQGLEWIGWIYPGNVHTKYTEKFKGKATLTADKSSSTAYMHLSSLTSEDSAVYFCVRRYGYDGDWFAYWGQGTLVTVSS VL: DIQMTQSPASLAVSLGQRATISCRASESVDSYGNTFMHWYQQKPGQPPKLLIYRASNLESGIPARFSGSGSRTDFTLTINPVEADDVATYYCQQSNEDPWTFGGGTKLEIKR" observed=binds
binder="antibody 5259 (antibody, human IgG1, kappa, V domains shown, Chimeric: murine variable regions, human kappa constant region, expressed as full-length IgG) VH: EVQLVESGPGLVAPSQSLSITCTVSGFSLSRYTIHWVRQPPGKGLEWLGMIWGGGSTDYNSALKSRLSISKDNSKSQLFLKMNSLQTDDTAIYYCARKGITTTGFDYWGQGTTLTVSS VL: NIVLTQSPAIMSASPGEKVTMTCSASSSVSYMFWYQQKPGSSPRLLIYDTSNLASGVPVRFSGSGSGTSYSLTISRMEAEDAATYYCQQLNSYPPTFGGGTKLEIKR" observed=binds
